test_system: SARS-CoV-2 RdRp (nsp12, nsp7, nsp8 polymerase complex) (Severe acute respiratory syndrome coronavirus 2, UniProt P0DTD1)
test: biochemical
reported_conditions: recombinant RdRp: 1 μM nsp12, 3 μM nsp7, 3 μM nsp8; 0.5 μM template/primer RNA; 10 μM NTPs; 1 h at 30 °C; GraphPad fit
pIC50: −log10 of the molar value.

compound_structure_string | pIC50
O=C(N[C@@H](Cc1ccc(O)cc1)C(=O)O)c1cc(-c2ccccc2)c(=O)n(-c2cc(OC3CCCCC3)ccc2O)c1O | 3.94
Cn1cc(C(=O)N[C@@H](Cc2ccc(O)cc2)C(=O)O)cc(-c2ccsc2)c1=O | 4.06
O=C(N[C@@H](Cc1ccc(O)cc1)C(=O)O)c1cc(-c2ccccc2)c(=O)n2ccsc12 | 4.06
Cc1nn2c(=O)c(-c3ccccc3)cc(C(=O)N[C@@H](Cc3ccc(O)cc3)C(=O)O)c2s1 | 3.95
Cn1cc(C(=O)N[C@@H](Cc2ccc(O)cc2)C(=O)O)cc(-c2cccnc2)c1=O | 3.69

====

test_system: SARS-CoV-2 RdRp (nsp12, nsp7, nsp8 polymerase complex) (Severe acute respiratory syndrome coronavirus 2)
test: biochemical
Assay type: biochemical
reported_conditions: calculated as pIC50 [mol/L]/MW [kDa] from SARS-CoV-2 RdRp IC50
Here, each record is paired with measured BEI (binding efficiency index) data.
metric_name: BEI (binding efficiency index)

compound | metric_name | measured_result
Cn1cc(C(=O)N[C@@H](Cc2ccc(O)cc2)C(=O)O)cc(-c2cccnc2)c1=O [3b] | BEI (binding efficiency index) | 9.4
Cn1cc(C(=O)N[C@@H](Cc2ccc(O)cc2)C(=O)O)cc(-c2ccccc2)c1=O [3a] | BEI (binding efficiency index) | 9.9
Cc1nn2c(=O)c(-c3ccccc3)cc(C(=O)N[C@@H](Cc3ccc(O)cc3)C(=O)O)c2s1 [4b] | BEI (binding efficiency index) | 8.8
Cn1cc(C(=O)N[C@@H](Cc2ccc(O)cc2)C(=O)O)cc(-c2ccsc2)c1=O [3c] | BEI (binding efficiency index) | 10.2
O=C(N[C@@H](Cc1ccc(O)cc1)C(=O)O)c1cc(-c2ccccc2)c(=O)n2ccsc12 [4a] | BEI (binding efficiency index) | 9.3
O=C(N[C@@H](Cc1ccc(O)cc1)C(=O)O)c1cc(-c2ccccc2)c(=O)n(-c2cc(OC3CCCCC3)ccc2O)c1O [compound 16] | BEI (binding efficiency index) | 6.7
O=C(N[C@@H](Cc1ccc(O)cc1)C(=O)O)c1cc(-c2ccccc2)c(=O)n2c1sc1ccc(OC3CCCCC3)cc12 [compound 1, HeE1-2Tyr, reference compound] | BEI (binding efficiency index) | 7.8
